# MEASUREMENT TARGET: T1, PUF4 RNA-binding domain (Saccharomyces cerevisiae, UniProt P25339 537-888)
# T1 sequence: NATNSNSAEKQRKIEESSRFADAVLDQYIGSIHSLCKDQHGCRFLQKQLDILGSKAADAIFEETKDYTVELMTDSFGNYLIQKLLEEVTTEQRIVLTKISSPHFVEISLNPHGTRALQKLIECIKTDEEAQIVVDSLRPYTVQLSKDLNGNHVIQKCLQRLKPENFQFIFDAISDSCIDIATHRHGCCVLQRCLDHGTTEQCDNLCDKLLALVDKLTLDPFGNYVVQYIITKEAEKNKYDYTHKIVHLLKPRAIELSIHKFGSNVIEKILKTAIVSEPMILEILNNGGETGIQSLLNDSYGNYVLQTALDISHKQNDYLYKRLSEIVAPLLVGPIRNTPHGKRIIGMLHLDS
# EXPERIMENT DESCRIPTION: Mg; RNA-MaP; 20 mM Na-HEPES pH 7.4, 30 mM KOAc, 0.75 mM MgCl2, 0.1% Tween-20, 5% glycerol, 0.1 mg/mL BSA, 2 mM DTT; 25 C; 0.0125-409.6 nM protein
# EXPERIMENTAL PARAMETERS: tags: N-His6-TEV cleaved; C-SNAP kept, Cy3B-labelled; label: tethered on chip by stalled RNA polymerase
Response field label takes True when Kd is strictly below 400 nM and False in all other cases.

Hello, is Kd of the following binder strictly smaller than 400 nM? Ic_S4_P4E.1_K4.1_C4.1_H4.1_A4.1_[T5G]_[A6C]_F4.1_[T8C]_T4.1 (ssRNA) RNA: UUUGACAACUGAUCGUUCUUUCUUGUAGCUCAUUCUUUCUCGAUCAGUUGUCUUU
True

Hello, is Kd of the following binder strictly smaller than 400 nM? UCUCUUUAUAUAUCAUCUCUU (ssRNA) [Ib_S1_P4E.1_K4.1_C4.1_H4.1_[G2A]_A4.1_F4.1_[T8C]_T4.1]
False

Hello, is Kd of the following binder strictly smaller than 400 nM? UCUCUUUGUAUGAUUCUCUCUU (ssRNA) [Ib_S1_P5E.1_K5.1_C5.1_H5.1_A5.1_[T6G]_F5.1_[A10C]_T5.1]
True

Hello, is Kd of the following binder strictly smaller than 400 nM? UCUCUUUGUACUAUCUCUCUU (ssRNA) [Ic_S1_P4E.1_K4.1_C4.1_H4.1_A4.1_[T5C]_[A6T]_[T7A]_F4.1_[A9C]_T4.1]
True

Hello, is Kd of the following binder strictly smaller than 400 nM? UCUCUUAUUGUAUAUAUUUCUCUU (ssRNA) [Id_ii_S1_P3E.2_K3.1_C3.2_[C-2A]_H3.1_A3.1_F3.1_T3.2_[A10T]]
True

Hello, is Kd of the following binder strictly smaller than 400 nM? UCUCUUUGCAUCAUUAUCUCUU (ssRNA) [Ib_S1_P5E.1_K5.1_C5.1_H5.1_[T3C]_A5.1_[T6C]_F5.1_T5.1]
False

Hello, is Kd of the following binder strictly smaller than 400 nM? UCUCUUUGUAUAUGAUUCUCUU (ssRNA) [Ic_S1_P5E.1_K5.1_C5.1_H5.1_A5.1_[T6A]_[A7T]_F5.1_[T8G]_[T9A]_[A10T]_T5.1]
True
